I'd appreciate it if you could supply melting point values for the items below.

Query: Hello, please tell me recorded melting point for this one: CC(C)Cn1c(CO)nc2c(N)nc3cccnc3c21
Reply: 226 to 228 °C

Query: Indicate the recorded melting point value for this compound: CCOCc1nc2c(N)nc3cccnc3c2n1CC(C)(C)NC(=O)C1CCCCC1
Reply: 210 to 211 °C

Query: Indicate its recorded melting point; the compound in question is CCOCc1nc2c(N)nc3cccnc3c2n1CC(C)(C)O
Reply: 157 to 159 °C

Query: State, in one line, measured melting point of CC(C)(Cn1c(CO)nc2c(N)nc3cccnc3c21)NC(=O)C1CCCCC1
Reply: 230 to 232 °C

Query: Dear colleague, please send me the reported melting point for CC(C)(O)Cn1c(CO)nc2c(N)nc3cccnc3c21 when you can.
Reply: 235 to 237 °C
